- SYSTEM: Cx50 (Mus musculus, UniProt P28236)
- Sequence (P28236 2-440): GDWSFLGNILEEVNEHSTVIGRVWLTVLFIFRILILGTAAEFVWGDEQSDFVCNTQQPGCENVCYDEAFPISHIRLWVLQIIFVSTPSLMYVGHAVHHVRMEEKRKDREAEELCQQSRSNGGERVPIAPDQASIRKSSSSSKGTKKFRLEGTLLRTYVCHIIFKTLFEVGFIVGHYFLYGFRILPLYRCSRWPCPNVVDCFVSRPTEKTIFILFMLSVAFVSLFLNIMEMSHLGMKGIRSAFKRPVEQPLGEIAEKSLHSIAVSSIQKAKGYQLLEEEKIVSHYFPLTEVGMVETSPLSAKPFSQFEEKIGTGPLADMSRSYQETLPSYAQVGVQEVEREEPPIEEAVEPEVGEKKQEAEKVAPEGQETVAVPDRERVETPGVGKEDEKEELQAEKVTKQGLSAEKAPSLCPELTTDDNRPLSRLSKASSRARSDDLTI
READOUT_LABEL: IC50 (µM)
Form entry: value (µM) — number only.

QUERY: Lab note: need IC50 for C=C[C@H]1C[N+]2(Cc3ccccc3)CC[C@H]1C[C@H]2[C@H](O)c1ccnc2ccc(OC)cc12 [BQ+, N-benzylquininium] on Cx50 (Mus musculus, UniProt P28236), anyone have it?
RESULT: 340
